# credit: the supplement of paper PMC8728848

# tested_target: Gal(a1-4)Gal(b1-4)GlcNAc(b1-2)Man(a1-3)[Gal(a1-4)Gal(b1-4)GlcNAc(b1-2)Man(a1-6)]Man(b1-4)GlcNAc(b1-4)GlcNAc
# protocol_text: glycan array binding signal (z-score within array); higher = stronger binding
# conditions: glycan notation: IUPAC condensed, linker removed
Only a selection was taken, and the strongest signals are over-represented in it overall.
Reported glycan array binding signal (z-score) values follow for various binders
Answer with a bare number; do not write a unit.

These solved cases illustrate the format of a correct answer.
1. CGL (Crenomytilus grayanus), H2FH31 (protein) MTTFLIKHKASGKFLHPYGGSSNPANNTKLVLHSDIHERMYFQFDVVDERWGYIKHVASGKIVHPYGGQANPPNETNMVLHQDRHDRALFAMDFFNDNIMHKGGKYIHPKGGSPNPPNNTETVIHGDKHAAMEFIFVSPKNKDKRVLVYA; 8.66
2. Arath Fbox (Arabidopsis thaliana), NP_178341.1 (protein) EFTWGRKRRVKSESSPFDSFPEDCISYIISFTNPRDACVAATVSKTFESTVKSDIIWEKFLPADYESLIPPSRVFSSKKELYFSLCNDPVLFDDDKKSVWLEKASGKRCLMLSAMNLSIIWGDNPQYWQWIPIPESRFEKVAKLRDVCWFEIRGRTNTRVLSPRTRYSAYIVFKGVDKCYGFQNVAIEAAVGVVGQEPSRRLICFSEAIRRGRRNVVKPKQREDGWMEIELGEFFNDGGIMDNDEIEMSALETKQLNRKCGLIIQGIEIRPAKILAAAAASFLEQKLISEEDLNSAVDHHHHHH; 0.198
3. BDCA-2 (Homo sapiens), Q8WTT0 (protein) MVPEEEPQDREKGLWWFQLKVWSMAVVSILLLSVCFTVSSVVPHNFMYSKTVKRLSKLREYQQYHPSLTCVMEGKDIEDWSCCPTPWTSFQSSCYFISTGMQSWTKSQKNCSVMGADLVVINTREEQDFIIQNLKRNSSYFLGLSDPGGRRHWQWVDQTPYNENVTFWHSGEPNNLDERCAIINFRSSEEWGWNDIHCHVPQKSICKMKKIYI; 8.11
4. Calsepa (Calystegia sepium), P93114 (protein) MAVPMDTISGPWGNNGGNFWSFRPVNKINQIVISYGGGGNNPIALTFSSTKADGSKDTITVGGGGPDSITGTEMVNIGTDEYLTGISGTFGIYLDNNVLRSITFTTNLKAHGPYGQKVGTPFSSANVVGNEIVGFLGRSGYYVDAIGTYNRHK; 3.47

Now consider a different binder.
Q: Can you look up the measured glycan array binding signal (z-score) of CC1G-11630 (Coprinopsis cinerea), A8P462 (protein) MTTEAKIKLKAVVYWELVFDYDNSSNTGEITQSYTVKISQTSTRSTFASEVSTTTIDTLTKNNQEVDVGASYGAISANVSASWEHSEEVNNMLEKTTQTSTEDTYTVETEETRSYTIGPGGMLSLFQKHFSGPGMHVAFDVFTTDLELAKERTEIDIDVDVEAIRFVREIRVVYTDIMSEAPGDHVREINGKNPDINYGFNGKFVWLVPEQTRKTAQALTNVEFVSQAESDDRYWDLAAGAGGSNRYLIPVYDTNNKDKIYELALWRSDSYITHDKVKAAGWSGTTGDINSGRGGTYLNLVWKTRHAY for me?
A: 0.102
